# subject_of_test: DNA gyrase subunit B (Escherichia coli)
# assay_procedure: Inhibition of Escherichia coli DNA gyrase B incubated for 60 mins by malachite green dye based spectrometric analysis
quantity: IC50

For CCNC(=O)Nc1nc2cc(-c3cnc(N4CCC(C(=O)O)CC4)nc3)cc(-c3ccccn3)c2s1 the compound record lists IC50 as < 199 nM

----------
# subject_of_test: Metabotropic glutamate receptor 5 (Rattus norvegicus)
# Sequence (P31424 whole entry): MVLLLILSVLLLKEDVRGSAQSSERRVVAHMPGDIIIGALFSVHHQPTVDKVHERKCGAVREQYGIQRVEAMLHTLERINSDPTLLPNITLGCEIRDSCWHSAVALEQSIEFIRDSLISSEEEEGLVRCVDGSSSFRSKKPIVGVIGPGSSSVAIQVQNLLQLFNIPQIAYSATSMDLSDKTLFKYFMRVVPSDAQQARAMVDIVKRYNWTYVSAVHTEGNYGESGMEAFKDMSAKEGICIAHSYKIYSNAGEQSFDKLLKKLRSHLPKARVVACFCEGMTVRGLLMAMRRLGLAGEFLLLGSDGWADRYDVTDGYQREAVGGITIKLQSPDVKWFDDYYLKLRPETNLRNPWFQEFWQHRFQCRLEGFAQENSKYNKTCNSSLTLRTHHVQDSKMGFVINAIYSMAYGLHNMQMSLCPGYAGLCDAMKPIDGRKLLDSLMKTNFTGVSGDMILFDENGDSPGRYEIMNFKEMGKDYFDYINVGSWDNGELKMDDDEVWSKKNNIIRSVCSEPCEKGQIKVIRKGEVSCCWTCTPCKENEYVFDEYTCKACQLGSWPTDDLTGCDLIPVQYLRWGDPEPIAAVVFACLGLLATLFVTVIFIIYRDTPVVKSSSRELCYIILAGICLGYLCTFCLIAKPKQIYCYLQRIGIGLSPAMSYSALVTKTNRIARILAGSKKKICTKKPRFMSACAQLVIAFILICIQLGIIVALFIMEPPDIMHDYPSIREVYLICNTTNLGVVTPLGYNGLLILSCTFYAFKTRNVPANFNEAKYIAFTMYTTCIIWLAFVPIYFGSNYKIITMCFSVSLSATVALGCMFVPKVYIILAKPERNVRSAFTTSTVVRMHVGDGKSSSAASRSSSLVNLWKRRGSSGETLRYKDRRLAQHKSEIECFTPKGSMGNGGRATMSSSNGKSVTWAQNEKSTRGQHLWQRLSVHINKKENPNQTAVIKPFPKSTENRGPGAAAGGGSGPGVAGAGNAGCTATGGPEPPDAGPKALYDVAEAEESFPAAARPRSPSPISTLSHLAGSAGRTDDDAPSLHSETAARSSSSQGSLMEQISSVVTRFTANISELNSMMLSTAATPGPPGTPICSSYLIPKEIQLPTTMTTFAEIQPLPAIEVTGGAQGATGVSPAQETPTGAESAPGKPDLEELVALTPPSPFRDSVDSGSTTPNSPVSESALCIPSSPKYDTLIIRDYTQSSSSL
# assay_procedure: Inhibition of rat mGluR5 expressed in HEK293A cells preincubated for 140 secs followed by EC20 glutamate stimulation for 74 secs and subsequent EC80 glutamate addition and measured up to 40 secs by Fluo-4-AM dye based fluorescence assay
quantity: IC50 (nM)
Just the number please, in nM, no unit attached.

For N#Cc1cc(F)cc(NC(=O)Nc2ccc(Cl)cn2)c1 the compound record lists IC50 as 13

----------
# Test system: HT-29
# assay_procedure: Antiproliferative activity against human HT-29 cells after 72 hrs by CCK8 assay
# Type: functional, cell-based
# condition_parameters: HT-29, 72 h
quantity: IC50 (nM)
Just the number please, in nM, no unit attached.

Case N#Cc1cc(O)ccc1-c1ccc(NC(=O)Nc2ccc(Cl)c(C(F)(F)F)c2)cc1 , HT-29, IC50 recorded as 1900

----------
# assay_procedure: Half life in plasma (unknown origin)
# Format: ADME, cell-free
quantity: half-life (h)
Just the number please, in h, no unit attached.

For CC(C)c1nc(CN(C)C(=O)N[C@H](C(=O)N[C@@H](Cc2ccccc2)C[C@H](O)[C@H](Cc2ccccc2)NC(=O)OCc2cncs2)C(C)C)cs1 the compound record lists half-life as 1.2

----------
# subject_of_test: Metabotropic glutamate receptor 7 (Homo sapiens, UniProt Q14831)
# Sequence (Q14831 whole entry): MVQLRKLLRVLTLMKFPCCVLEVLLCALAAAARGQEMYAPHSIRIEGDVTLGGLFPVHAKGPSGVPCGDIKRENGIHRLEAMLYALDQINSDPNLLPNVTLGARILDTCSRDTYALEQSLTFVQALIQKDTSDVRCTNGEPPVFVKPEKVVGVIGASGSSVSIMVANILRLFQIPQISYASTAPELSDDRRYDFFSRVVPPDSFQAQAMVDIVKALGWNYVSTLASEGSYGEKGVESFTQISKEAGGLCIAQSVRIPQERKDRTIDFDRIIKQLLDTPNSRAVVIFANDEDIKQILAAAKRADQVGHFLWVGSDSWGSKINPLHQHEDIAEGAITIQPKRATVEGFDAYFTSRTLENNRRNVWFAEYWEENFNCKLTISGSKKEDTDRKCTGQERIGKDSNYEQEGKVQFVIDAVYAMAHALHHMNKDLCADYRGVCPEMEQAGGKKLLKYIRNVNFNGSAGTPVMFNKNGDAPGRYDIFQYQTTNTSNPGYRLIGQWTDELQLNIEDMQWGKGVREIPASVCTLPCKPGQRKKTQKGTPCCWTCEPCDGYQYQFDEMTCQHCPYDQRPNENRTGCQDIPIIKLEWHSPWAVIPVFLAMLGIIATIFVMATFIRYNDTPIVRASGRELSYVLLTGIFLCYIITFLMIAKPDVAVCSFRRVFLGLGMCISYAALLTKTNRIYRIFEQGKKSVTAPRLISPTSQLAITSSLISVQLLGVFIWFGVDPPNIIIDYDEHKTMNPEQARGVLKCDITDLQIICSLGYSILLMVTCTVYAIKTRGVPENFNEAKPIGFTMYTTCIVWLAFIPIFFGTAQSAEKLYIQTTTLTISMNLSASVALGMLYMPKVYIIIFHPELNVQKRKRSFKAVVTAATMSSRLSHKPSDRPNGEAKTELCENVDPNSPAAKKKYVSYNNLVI
pIC50: −log10 of the molar value.
quantity: pIC50

Case N#Cc1cc(F)cc(NC(=O)Nc2ccc(Cl)cn2)c1 , Metabotropic glutamate receptor 7 (Homo sapiens, UniProt Q14831), pIC50 recorded as < 4.52

----------
# Tested on: LoVo
# assay_procedure: Antiproliferative activity against human LoVo cells after 72 hrs by CCK8 assay
# Format: functional, cell-based
quantity: pIC50
Scale: pIC50 equals -log10([C]), with [C] in mol/L.

Case N#Cc1cc(O)ccc1-c1ccc(NC(=O)Nc2ccc(Cl)c(C(F)(F)F)c2)cc1 , LoVo, pIC50 recorded as 5.82
